This listing pairs compounds with measured pIC50.
System: NRK-49F
Assay: Inhibition of TGF-beta1-induced total collagen accumulation in rat NRK-49F cells
Format: functional, cell-based
The scale used: pIC50 is minus the common logarithm of the concentration in molar units.

Reference set, count: 4
Problem: Would you kindly share the measured pIC50 for CC(C)(C)c1ccc(NC(=O)c2cn(CCN3CCOCC3)c3ccc(C(C)(C)C)cc3c2=O)cc1 ?
Result: 5.64

Problem: Would you kindly share the measured pIC50 for CC(C)(C)c1ccc(NC(=O)c2c[nH]c3ccc(C(C)(C)C)cc3c2=O)cc1 ?
Result: 5.70

Problem: Would you kindly share the measured pIC50 for CC(C)(C)c1cc(C(C)(C)C)c(NC(=O)c2c[nH]c3ccccc3c2=O)cc1O [IVACAFTOR] ?
Result: 5.40

Problem: Would you kindly share the measured pIC50 for CC(C)(C)c1ccc2[nH]cc(C(=O)Nc3ccc(C(C)(C)C)c(N)c3)c(=O)c2c1 ?
Result: 5.39

Turning now to a further compound:
Problem: Would you kindly share the measured pIC50 for COc1cc(NC(=O)c2c[nH]c3ccc(C(C)(C)C)cc3c2=O)cc(OC)c1OC ?
Result: 5.60

FYI, the data here is from ChEMBL document CHEMBL3351704.
